These data points were gathered from patent US11306063B2.

Test Target: USP2^CD (purified catalytic domain of USP2) (Homo sapiens, UniProt O75604)
Construct: The purified catalytic domain of USP2 (USP2^CD, in-house purified); His; made in house; host or cells: E. coli BL21 Gold
Sequence (O75604 267-599 limits assumed): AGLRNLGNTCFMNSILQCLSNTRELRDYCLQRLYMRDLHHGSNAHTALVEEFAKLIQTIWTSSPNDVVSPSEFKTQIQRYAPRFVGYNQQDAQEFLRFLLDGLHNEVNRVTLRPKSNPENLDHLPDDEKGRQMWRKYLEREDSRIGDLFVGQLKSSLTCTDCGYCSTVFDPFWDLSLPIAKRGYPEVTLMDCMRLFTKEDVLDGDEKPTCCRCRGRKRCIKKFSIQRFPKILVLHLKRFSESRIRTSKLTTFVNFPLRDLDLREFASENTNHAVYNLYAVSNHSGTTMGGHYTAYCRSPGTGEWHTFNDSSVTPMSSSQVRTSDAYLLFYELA
Test Summary: Inhibition of purified USP2^CD enzymatic activity (Ub-AMC or Ub-Rho substrate)
Format: biochemical
Experimental Context: 1 μM compound; Table 1c
Value Kind: inhibition at 1 µM (%)

O=C1c2ccccc2C(=O)c2nc(CS(=O)(=O)c3cccc(F)c3)c(CS(=O)(=O)c3cccc(F)c3)nc21	-6

I. O=C1c2ccccc2C(=O)c2nc(CS(=O)(=O)c3ccccc3F)c(CS(=O)(=O)c3ccccc3F)nc21
II. O=C1c2ccccc2C(=O)c2nc(CS(=O)(=O)c3ccc(F)c(F)c3F)c(CS(=O)(=O)c3ccc(F)c(F)c3F)nc21
Prompt: Which one would you say has the larger inhibition at 1 µM value: I , or II ? Mark your answer with the label of the selected entry.
Completion: II

A. CCS(=O)(=O)Cc1nc2c(nc1CS(=O)(=O)CC)C(=O)c1ccccc1C2=O
B. CCCCCS(=O)(=O)Cc1nc2c(nc1CS(=O)(=O)CCCCC)C(=O)c1ccccc1C2=O
C. CCCS(=O)(=O)Cc1nc2c(nc1CS(=O)(=O)CCC)C(=O)c1ccccc1C2=O
Prompt: Place the items in sequence of falling inhibition at 1 µM. Please write the labels in the order that was asked for.
Completion: A, C, B
(A: 31%, C: 17%, B: -17%)

a. COc1ccc(S(=O)(=O)Cc2nc3c(nc2CS(=O)(=O)c2ccc(OC)c(OC)c2)C(=O)c2ccccc2C3=O)cc1OC
b. O=C1c2ccccc2C(=O)c2nc(CS(=O)(=O)c3ccc4c(c3)OCCO4)c(CS(=O)(=O)c3ccc4c(c3)OCCO4)nc21
Prompt: // compare: a vs b , metric inhibition at 1 µM, want the smaller Mark your answer with the label of the selected entry.
Completion: b

I. O=C1c2ccccc2C(=O)c2nc(CS(=O)(=O)c3cccc(Cl)c3)c(CS(=O)(=O)c3cccc(Cl)c3)nc21
II. CS(=O)(=O)Cc1nc2c(nc1CS(C)(=O)=O)C(=O)c1ccccc1C2=O
Prompt: // compare: I vs II , metric inhibition at 1 µM, want the smaller Mark your answer with the label of the selected entry.
Completion: I
(I: 37%, II: 57%)

---

Test Target: USP8^CD (purified catalytic domain of USP8) (Homo sapiens, UniProt P40818)
Construct: the purified catalytic domain of USP8 (USP8^CD, in-house purified); made in house; host or cells: E. coli BL21 Gold
Sequence (P40818 777-1109 limits assumed): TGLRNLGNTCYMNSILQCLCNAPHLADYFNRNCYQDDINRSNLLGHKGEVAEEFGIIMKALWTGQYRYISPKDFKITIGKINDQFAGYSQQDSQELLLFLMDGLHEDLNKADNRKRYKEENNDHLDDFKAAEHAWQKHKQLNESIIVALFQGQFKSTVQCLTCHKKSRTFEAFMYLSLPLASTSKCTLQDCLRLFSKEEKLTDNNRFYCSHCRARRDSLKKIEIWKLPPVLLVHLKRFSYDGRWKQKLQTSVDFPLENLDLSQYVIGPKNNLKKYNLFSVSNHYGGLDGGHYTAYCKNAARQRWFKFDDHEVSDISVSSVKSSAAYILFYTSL
Test Summary: Inhibition of purified USP8^CD enzymatic activity (Ub-AMC or Ub-Rho substrate)
Type: biochemical
Experimental Context: 1 μM compound; Table 1b
Value Kind: inhibition at 1 µM (%)

Examples with answers:
O=C1c2ccccc2C(=O)c2nc(CS(=O)(=O)c3ccccc3F)c(CS(=O)(=O)c3ccccc3F)nc21	64
O=C1c2ccccc2C(=O)c2nc(CS(=O)(=O)c3cccc(Cl)c3)c(CS(=O)(=O)c3cccc(Cl)c3)nc21	68
O=C1c2ccccc2C(=O)c2nc(CS(=O)(=O)c3ccc4c(c3)OCCO4)c(CS(=O)(=O)c3ccc4c(c3)OCCO4)nc21	53
O=C1c2ccccc2C(=O)c2nc(CS(=O)(=O)c3ccc(F)c(F)c3F)c(CS(=O)(=O)c3ccc(F)c(F)c3F)nc21	83
CCCCCS(=O)(=O)Cc1nc2c(nc1CS(=O)(=O)CCCCC)C(=O)c1ccccc1C2=O	54
CCS(=O)(=O)Cc1nc2c(nc1CS(=O)(=O)CC)C(=O)c1ccccc1C2=O	85

I. O=C1c2ccccc2C(=O)c2nc(CS(=O)(=O)c3cccc(F)c3)c(CS(=O)(=O)c3cccc(F)c3)nc21
II. O=C1c2ccccc2C(=O)c2nc(CS(=O)(=O)c3ccc(Br)s3)c(CS(=O)(=O)c3ccc(Br)s3)nc21
III. O=C1c2ccccc2C(=O)c2nc(CS(=O)(=O)c3cccc(C(F)(F)F)c3)c(CS(=O)(=O)c3cccc(C(F)(F)F)c3)nc21
Prompt: Place the items in sequence of falling inhibition at 1 µM. Please write the labels in the order that was asked for.
Completion: I, III, II

---

Test Target: USP2^CD (purified catalytic domain of USP2) (Homo sapiens)
Construct: The purified catalytic domain of USP2 (USP2^CD, in-house purified); His; made in house; host or cells: E. coli BL21 Gold
Test Summary: Inhibition of purified USP2^CD enzymatic activity (Ub-AMC or Ub-Rho substrate)
Format: biochemical
Experimental Context: 0.1 μM compound; Table 1c
Value Kind: inhibition at 0.1 µM (%)

a. CS(=O)(=O)Cc1nc2c(nc1CS(C)(=O)=O)C(=O)c1ccccc1C2=O
b. O=C1c2ccccc2C(=O)c2nc(CS(=O)(=O)c3ccccc3F)c(CS(=O)(=O)c3ccccc3F)nc21
Prompt: Which one would you say has the larger inhibition at 0.1 µM value: a , or b ? Mark your answer with the label of the selected entry.
Completion: b

P. COc1ccc(S(=O)(=O)Cc2nc3c(nc2CS(=O)(=O)c2ccc(OC)cc2)C(=O)c2ccccc2C3=O)cc1
Q. COc1ccc(S(=O)(=O)Cc2nc3c(nc2CS(=O)(=O)c2ccc(OC)c(OC)c2)C(=O)c2ccccc2C3=O)cc1OC
Prompt: Which one would you say has the larger inhibition at 0.1 µM value: P , or Q ? Mark your answer with the label of the selected entry.
Completion: Q

---

Test Target: USP8^CD (purified catalytic domain of USP8) (Homo sapiens, UniProt P40818)
Construct: the purified catalytic domain of USP8 (USP8^CD, in-house purified); made in house; host or cells: E. coli BL21 Gold
Test Summary: Inhibition of purified USP8^CD enzymatic activity (Ub-AMC or Ub-Rho substrate)
Assay type: biochemical
Experimental Context: 0.1 μM compound; Table 1d
Value Kind: inhibition at 0.1 µM (%)

Examples with answers:
CCCS(=O)(=O)Cc1nc2c(nc1CS(=O)(=O)CCC)C(=O)c1ccccc1C2=O	0
CCCCCS(=O)(=O)Cc1nc2c(nc1CS(=O)(=O)CCCCC)C(=O)c1ccccc1C2=O	26
COc1ccc(S(=O)(=O)Cc2nc3c(nc2CS(=O)(=O)c2ccc(OC)c(OC)c2)C(=O)c2ccccc2C3=O)cc1OC	-8
O=C1c2ccccc2C(=O)c2nc(CS(=O)(=O)c3cccc(F)c3)c(CS(=O)(=O)c3cccc(F)c3)nc21	-9
O=C1c2ccccc2C(=O)c2nc(CS(=O)(=O)c3ccc(F)c(F)c3F)c(CS(=O)(=O)c3ccc(F)c(F)c3F)nc21	24

P. CCS(=O)(=O)Cc1nc2c(nc1CS(=O)(=O)CC)C(=O)c1ccccc1C2=O
Q. O=C1c2ccccc2C(=O)c2nc(CS(=O)(=O)c3ccccc3F)c(CS(=O)(=O)c3ccccc3F)nc21
Prompt: Which one would you say has the larger inhibition at 0.1 µM value: P , or Q ? Mark your answer with the label of the selected entry.
Completion: P
(P: 12%, Q: 7%)

---

Test Target: USP2^CD (purified catalytic domain of USP2) (Homo sapiens, UniProt O75604)
Construct: The purified catalytic domain of USP2 (USP2^CD, in-house purified); His; made in house; host or cells: E. coli BL21 Gold
Sequence (O75604 267-599 limits assumed): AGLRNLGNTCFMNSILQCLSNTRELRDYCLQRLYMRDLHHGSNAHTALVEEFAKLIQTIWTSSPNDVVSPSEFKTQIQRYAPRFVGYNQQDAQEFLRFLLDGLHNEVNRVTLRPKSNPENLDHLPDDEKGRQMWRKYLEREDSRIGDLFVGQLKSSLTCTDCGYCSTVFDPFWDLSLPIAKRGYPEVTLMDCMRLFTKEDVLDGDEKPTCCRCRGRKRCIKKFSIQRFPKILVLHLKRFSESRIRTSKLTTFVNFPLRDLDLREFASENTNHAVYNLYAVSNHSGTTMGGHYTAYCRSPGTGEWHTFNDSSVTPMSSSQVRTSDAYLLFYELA
Test Summary: Inhibition of purified USP2^CD enzymatic activity (Ub-AMC or Ub-Rho substrate)
Type: biochemical
Experimental Context: Ub-AMC substrate at 1 μM; Table 2b; read-out: IC50 USP2 CD
pIC50: −log10 of the molar value.
Quick reference for pIC50 among some compounds

Examples with answers:
O=C1c2ccccc2C(=O)c2nc(CS(=O)(=O)c3cccc(Cl)c3)c(CS(=O)(=O)c3cccc(Cl)c3)nc21	< 5.00
O=C1c2ccccc2C(=O)c2nc(CCl)c(CCl)nc21	5.22

Prompt: Name the reported pIC50 value associated with the compound COc1ccc(S(=O)(=O)Cc2nc3c(nc2CS(=O)(=O)c2ccc(OC)cc2)C(=O)c2ccccc2C3=O)cc1
Completion: < 5.00

Prompt: Name the reported pIC50 value associated with the compound CCCS(=O)(=O)Cc1nc2c(nc1CS(=O)(=O)CCC)C(=O)c1ccccc1C2=O
Completion: 5.52

Prompt: Name the reported pIC50 value associated with the compound O=C1c2ccccc2C(=O)c2nc(CS(=O)(=O)c3cccc(F)c3)c(CS(=O)(=O)c3cccc(F)c3)nc21
Completion: < 5.00

Prompt: Name the reported pIC50 value associated with the compound O=C1c2ccccc2C(=O)c2nc(CS(=O)(=O)c3ccc4c(c3)OCCO4)c(CS(=O)(=O)c3ccc4c(c3)OCCO4)nc21
Completion: < 5.00

Prompt: Name the reported pIC50 value associated with the compound O=C1c2ccccc2C(=O)c2nc(CS(=O)(=O)c3ccccc3F)c(CS(=O)(=O)c3ccccc3F)nc21
Completion: < 5.00

Prompt: Name the reported pIC50 value associated with the compound CCCCCS(=O)(=O)Cc1nc2c(nc1CS(=O)(=O)CCCCC)C(=O)c1ccccc1C2=O
Completion: < 5.00

Prompt: Name the reported pIC50 value associated with the compound CS(=O)(=O)Cc1nc2c(nc1CS(C)(=O)=O)C(=O)c1ccccc1C2=O
Completion: < 5.00

Prompt: Name the reported pIC50 value associated with the compound COc1ccc(S(=O)(=O)Cc2nc3c(nc2CS(=O)(=O)c2ccc(OC)c(OC)c2)C(=O)c2ccccc2C3=O)cc1OC
Completion: < 5.00

Prompt: Name the reported pIC50 value associated with the compound O=C1c2ccccc2C(=O)c2nc(CBr)c(CBr)nc21
Completion: 4.77

Prompt: Name the reported pIC50 value associated with the compound O=C1c2ccccc2C(=O)c2nc(CS(=O)(=O)c3ccc(F)c(F)c3F)c(CS(=O)(=O)c3ccc(F)c(F)c3F)nc21
Completion: < 5.00

Prompt: Name the reported pIC50 value associated with the compound CCS(=O)(=O)Cc1nc2c(nc1CS(=O)(=O)CC)C(=O)c1ccccc1C2=O
Completion: 5.30
